These entries and their values trace back to patent US8129355B2.

Item-by-item account of CC50
# Tested System: Bombyx mori EcR (VP16 fusion, switch construct CVBE) with 6XEcRE LacZ reporter (Bombyx mori)
# Construct: expressed in transfected cells; host or cells: Human 293 kidney (HEK-293) cells, retrovirally infected, clone Z3
# Sequence (P49881 86-606 limits assumed): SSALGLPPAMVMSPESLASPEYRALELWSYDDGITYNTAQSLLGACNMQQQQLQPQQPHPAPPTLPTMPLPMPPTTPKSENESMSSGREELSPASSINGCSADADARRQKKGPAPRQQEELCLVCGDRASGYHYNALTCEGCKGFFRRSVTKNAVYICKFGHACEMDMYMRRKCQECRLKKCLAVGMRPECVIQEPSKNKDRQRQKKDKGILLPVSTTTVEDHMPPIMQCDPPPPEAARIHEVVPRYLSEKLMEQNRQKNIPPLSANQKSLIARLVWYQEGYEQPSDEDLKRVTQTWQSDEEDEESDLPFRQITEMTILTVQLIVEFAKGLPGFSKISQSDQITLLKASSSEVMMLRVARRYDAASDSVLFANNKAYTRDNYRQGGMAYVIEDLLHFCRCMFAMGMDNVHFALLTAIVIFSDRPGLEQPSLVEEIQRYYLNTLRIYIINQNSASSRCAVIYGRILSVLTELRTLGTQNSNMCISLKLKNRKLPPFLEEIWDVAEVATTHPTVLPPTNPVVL
# Sequence (P19793 1-462 partner): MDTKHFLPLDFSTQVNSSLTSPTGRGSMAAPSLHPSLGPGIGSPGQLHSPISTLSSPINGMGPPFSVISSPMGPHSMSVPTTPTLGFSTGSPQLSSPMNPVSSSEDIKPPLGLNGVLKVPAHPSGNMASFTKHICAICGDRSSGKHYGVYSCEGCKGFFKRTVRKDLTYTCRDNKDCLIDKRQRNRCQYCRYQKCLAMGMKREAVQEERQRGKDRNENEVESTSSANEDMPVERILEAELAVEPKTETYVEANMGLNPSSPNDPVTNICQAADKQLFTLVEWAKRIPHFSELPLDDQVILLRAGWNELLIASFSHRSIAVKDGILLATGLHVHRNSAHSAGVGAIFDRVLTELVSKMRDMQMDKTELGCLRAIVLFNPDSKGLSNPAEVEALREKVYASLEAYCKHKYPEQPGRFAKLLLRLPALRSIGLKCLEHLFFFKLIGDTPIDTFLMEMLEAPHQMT
# Test Protocol: Z3 assay: β-galactosidase (LacZ) reporter gene fold induction in stably transformed human 293 kidney cells (clone Z3)
# Format: cell-based
# Test Parameters: average; dose response, three-parameter logistic model; read-out: Z3 LC50

| Structure As Smiles | Comparison Operator | CC50 / µM |
| --- | --- | --- |
| CCC(CC)(NC(=O)c1cccc(OC)c1C)C(=O)c1cccc(C)c1 | = | 6.61 |
| Cc1cc(C)cc(C(=O)C2(NC(=O)c3ccc4c(c3C)OCO4)CCCCC2)c1 | = | 3.68 |
| COc1cccc(C(=O)NC2(C(=O)c3cc(C)cc(C)c3)CCSCC2)c1C | = | 1.6 |
| Cc1ccccc1C(=O)NC1(C(=O)c2ccccc2)CCCC1 | > | 33 |
| CCc1c(C(=O)NC2(C(=O)c3cc(C)cc(C)c3)CCCCC2)ccc2c1OCCO2 | = | 0.74 |
| COc1ccccc1C(=O)C1(NC(=O)c2cccc(OC)c2C)CCCCCC1 | = | 1.94 |
| CCc1c(OC)cccc1C(=O)NC1(C(=O)c2cc(C)cc(C)c2)CCCCC1 | = | 1.81 |
| COc1cccc(C(=O)NC2(C(=O)c3cc(C)cc(C)c3)CCC2)c1C | = | 8.52 |
| COc1cccc(C(=O)NC2(C(=O)c3ccc(C)cc3)CCCC2)c1C | = | 34.4 |
| COc1cccc(C(=O)NC(C)(C)C(=O)c2ccccc2)c1C | > | 33 |
| O=C(NC1(C(=O)c2ccccc2)CCCC1)c1ccc2c(c1)OCO2 | > | 33 |
| CCc1c(OC)cccc1C(=O)NC1(C(=O)c2cc(C)cc(C)c2)CCCC1 | = | 2.15 |
| CCC(CC)(NC(=O)c1cccc(OC)c1C)C(=O)c1cc(C)cc(C)c1 | = | 4.53 |
| Cc1cc(C)cc(C(=O)C2(NC(=O)c3ccc4c(c3)COCO4)CCCC2)c1 | = | 9.46 |
| Cc1cc(C)cc(C(=O)C2(NC(=O)c3ccc4c(c3)OCCO4)CCCCC2)c1 | = | 1.99 |
| CCc1c(C(=O)NC2(C(=O)c3cc(C)cc(C)c3)CCCC2)ccc2c1OCCO2 | = | 1.59 |
| O=C(NC1(C(=O)c2ccccc2)CCCC1)c1ccccc1 | > | 33 |
